target: Replicase polyprotein 1ab (Severe acute respiratory syndrome coronavirus 2, UniProt P0DTD1)
Recorded IC50 for the following compounds
State just the number; it will be interpreted in µM.

[ask] Quick check: IC50 of CC1(C)CC(=O)C2=C(C1)Nc1cc([N+](=O)[O-])ccc1N(C(=O)CCl)C2c1ccc(C(F)(F)F)cc1 (configuration not stated) ?
[reply] 3.73

Next:
[ask] Quick check: IC50 of CC1CC(=O)C2=C(C1)Nc1cc([N+](=O)[O-])ccc1N(C(=O)CCl)C2c1ccc(F)cc1F (configuration not stated) ?
[reply] 6.21

[ask] Quick check: IC50 of COc1ccc(C2C3=C(CCCC3=O)Nc3cc([N+](=O)[O-])ccc3N2C(=O)CCl)cc1 (configuration not stated) ?
[reply] 2.05

[ask] Quick check: IC50 of O=C1CCCC2=C1C(c1ccc(OC(F)(F)F)cc1)N(C(=O)CCl)c1ccc([N+](=O)[O-])cc1N2 (configuration not stated) ?
[reply] 2.03
